system: T-cell; experiment: IL-2 secretion from T-cells co-stimulated with anti-CD3 and anti-CD28 antibody (Biological Example 2); type: cell-based, human; details: Homo sapiens, T-cell, 4 μM compound; primary human total T-cells; baseline = anti-CD3/anti-CD28 stimulated cells without inhibitor; read-out: IL-2 secretion, Anti-CD3/Anti-CD28 stimulation, fold change over baseline
QUANTITY NAME: fold induction at 4 µM

Cn1cnnc1[C@@H]1C[C@@H]1c1cccc(N2Cc3c(ccnc3C(F)(F)F)C2=O)c1 [Compound 369] = 1.01 to 2.5
Cn1cnnc1C(F)(F)[C@](C)(F)c1cccc(N2Cc3c(cc(CN4CC[C@H](C#N)C4)cc3C(F)(F)F)C2=O)c1 [Compound 454] = > 7.5
C[C@H](Cc1nncn1C)c1cccc(N2Cc3c(cc(CN4CC(F)C4)cc3C(F)(F)F)C2=O)c1 [Compound 401] = > 7.5
C[C@H](Cc1nncn1C)c1cccc(N2Cc3c(cc([C@H]4CCCNC4)cc3C(F)(F)F)C2=O)c1 [Compound 383] = > 7.5
Cc1[nH]ncc1-c1cc2c(c(C(F)(F)F)c1)CN(c1cccc([C@H](C)Cc3nncn3C)c1)C2=O [Compound 381] = > 7.5
Cn1cnnc1CC1(c2cccc(N3Cc4c(cc(CN5CCCC5=O)cc4C(F)(F)F)C3=O)c2)COC1 [Compound 426] = 2.51 to 5
C[C@H](Cc1nncn1C)c1cccc(N2Cc3c(cc(CN4CC[C@@H](F)C4)cc3C(F)(F)F)C2=O)c1 [Compound 400] = > 7.5

* * *

Items are presented alongside their recorded fold induction at 8 µM.
system: T-cell; test: IL-2 secretion from T-cells stimulated with anti-CD3 antibody alone (Biological Example 2); type: cell-based, human; details: T-cell; fold change over baseline; 8 μM Cbl-b inhibitor; primary human total T-cells; read-out: IL-2 secretion Anti-CD3 stimulation
QUANTITY NAME: fold induction at 8 µM

C[C@H](Cc1nncn1C)c1cccc(NC(=O)c2coc(C(F)(F)F)n2)c1 = 0.101 to 0.15
C[C@@H](Cc1nncn1C)c1cccc(NC(=O)c2cc(C3CC3)cc(C(F)(F)F)n2)c1 = 0.101 to 0.15
Cc1[nH]cnc1CC(C)c1cccc(N2Cc3c(cccc3C(F)(F)F)C2=O)c1 (stereo not shown) = 0.101 to 0.15
C[C@H](Cc1nncn1C)c1cccc(NC(=O)c2cncc(C(F)(F)F)n2)c1 = 0.051 to 0.1

* * *

// reported IC50 per item
molecular target: Cbl-b (Homo sapiens); experiment: Cbl-b activity assay (Cbl-b inhibition assay), TR-FRET of Cbl-b interaction with UbcH5B-Ub; type: biochemical; details: assay buffer with 100 mM NaCl, 60 nM Src kinase; read-out: Cbl-b activity IC50
Sequence (Q13191 36-427): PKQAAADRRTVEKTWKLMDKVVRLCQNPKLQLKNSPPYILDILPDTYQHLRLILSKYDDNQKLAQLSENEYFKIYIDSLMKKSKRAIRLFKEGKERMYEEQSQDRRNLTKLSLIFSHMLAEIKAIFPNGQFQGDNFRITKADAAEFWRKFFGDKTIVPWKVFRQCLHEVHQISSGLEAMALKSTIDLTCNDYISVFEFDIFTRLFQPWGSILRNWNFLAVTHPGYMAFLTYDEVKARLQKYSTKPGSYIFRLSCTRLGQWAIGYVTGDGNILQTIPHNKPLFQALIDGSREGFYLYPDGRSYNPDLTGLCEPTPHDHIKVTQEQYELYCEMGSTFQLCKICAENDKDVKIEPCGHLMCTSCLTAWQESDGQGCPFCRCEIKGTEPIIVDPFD
QUANTITY NAME: IC50

Cc1n[nH]c(C)c1-c1cc2c(c(C(F)(F)F)c1)CN(c1cccc([C@H](C)Cc3nncn3C)c1)C2=O = < 100 nM
C[C@H](Cc1nncn1C)c1cccc(N2Cc3c(cc(C(=O)N4CC[C@H](O)C4)cc3C(F)(F)F)C2=O)c1 = < 100 nM
C[C@H](Cc1nccn1C)c1cccc(NC(=O)c2cc(C(=O)N3CC[C@H](O)C3)ccn2)c1 [Compound 252a] = 1000 to 3000 nM
C[C@H]1C=CCN1Cc1cc2c(c(C(F)(F)F)c1)CN(c1cccc(C3(Cc4nncn4C)COC3)c1)C2=O = < 100 nM
C[C@H](Sc1nncn1C)c1cc(F)cc(N2Cc3c(cccc3C(F)(F)F)C2=O)c1 [Compound 168a] = 100 to 300 nM
Cn1cnnc1CC1(c2cccc(N3Cc4c(cc(C5=CN6CCC5CC6)cc4C(F)(F)F)C3=O)c2)COC1 = 100 to 300 nM
Cc1[nH]cnc1CC(C)c1cccc(N2Cc3c(cccc3C(F)(F)F)C2=O)c1 (stereo not shown) = 301 to 1000 nM

Sourced from patent US20220324835A1
